Reference source for all entries: paper PMC8205226

- Tested on: HIV-1 IN mutant N117H
- experimentalProtocol: single-round infectivity assay, N117H IN mutant
- Assay type: cell-based
- recordedConditions: fold change in EC50, IN mutant versus WT HIV-1
- Method: The EC50 values were determined using a vector that carries the IN mutant in a single round infection assay. […] Error bars represent the standard deviations of independent experiments, n = 4, performed in triplicate. WT and mutant HIV-1 viral vectors were used in single-round infectivity assays to determine the antiviral potencies (EC50 values) of the compounds and the effects of the mutants on the EC50 values as previously described.[30],[54] […]
Hi there, I'd appreciate the recorded FC N117H for every entry that follows.

### Prompt Using HIV-1 IN mutant N117H as the test system, report measured FC N117H of Nc1c(C(=O)NCc2ccc(F)cc2F)c(=O)n(O)c2ncc(CCS(=O)(=O)CCN3CCOCC3)cc12 [6v] .
### Response 1.9

### Prompt Using HIV-1 IN mutant N117H as the test system, report measured FC N117H of C[C@@H]1CCO[C@H]2Cn3cc(C(=O)NCc4ccc(F)cc4F)c(=O)c(O)c3C(=O)N12 [DTG, dolutegravir, reference compound] .
### Response 1.5

### Prompt Using HIV-1 IN mutant N117H as the test system, report measured FC N117H of COC(=O)CNc1c(C(=O)NCc2ccc(F)cc2F)c(=O)n(O)c2ncccc12 [5′g] .
### Response 1.5

### Prompt Using HIV-1 IN mutant N117H as the test system, report measured FC N117H of O=C(NCc1ccc(F)cc1F)c1c(O)c2cc(CCS(=O)(=O)c3ccccc3)cnc2n(O)c1=O [6w] .
### Response 1.8

### Prompt Using HIV-1 IN mutant N117H as the test system, report measured FC N117H of Nc1c(C(=O)NCc2ccc(F)cc2F)c(=O)n(O)c2ncc(CCS(=O)(=O)c3ccccc3)cc12 [4f] .
### Response 1.4

### Prompt Using HIV-1 IN mutant N117H as the test system, report measured FC N117H of Nc1c(C(=O)NCc2ccc(F)cc2F)c(=O)n(O)c2ncc(CCCCCCO)cc12 [4d] .
### Response 1.3

### Prompt Using HIV-1 IN mutant N117H as the test system, report measured FC N117H of CS(=O)(=O)CCc1cnc2c(c1)c(N)c(C(=O)NCc1ccc(F)cc1F)c(=O)n2O [6u] .
### Response 2.2

### Prompt Using HIV-1 IN mutant N117H as the test system, report measured FC N117H of O=C(NCc1ccc(F)cc1F)c1c(O)c2c(CO)ccnc2n(O)c1=O [5j] .
### Response 0.5

====

- System: HIV-1 IN mutant P142H
- experimentalProtocol: single-round infectivity assay, P142H IN mutant
- Type: cell-based
- recordedConditions: EC50 compound / EC50 DTG
- Experimental: The EC50 values were determined using a vector that carries the IN mutant in a single round infection assay. […] Error bars represent the standard deviations of independent experiments, n = 4, performed in triplicate. Single round infectivity measurements were determined as done previously.[38] The vector pNLNgoMIVR-ΔENV.LUC has been described previously.[26] […]
valueType: ratio of the EC50s (our compound relative to DTG) against P142H
In your answer, state the number alone without any accompanying words.

### Prompt For the compound Nc1c(C(=O)NCc2ccc(F)cc2F)c(=O)n(O)c2ncc(CCCCCCO)cc12 , give its measured ratio of the EC50s (our compound relative to DTG) against P142H value.
### Response 0.5

### Prompt For the compound CS(=O)(=O)CCc1cnc2c(c1)c(N)c(C(=O)NCc1ccc(F)cc1F)c(=O)n2O , give its measured ratio of the EC50s (our compound relative to DTG) against P142H value.
### Response 16.1

### Prompt For the compound Nc1c(C(=O)NCc2ccc(F)cc2F)c(=O)n(O)c2ncc(CCS(=O)(=O)CCN3CCOCC3)cc12 , give its measured ratio of the EC50s (our compound relative to DTG) against P142H value.
### Response 159.9

### Prompt For the compound Nc1c(C(=O)NCc2ccc(F)cc2F)c(=O)n(O)c2ncc(CCS(=O)(=O)c3ccccc3)cc12 , give its measured ratio of the EC50s (our compound relative to DTG) against P142H value.
### Response 0.6

### Prompt For the compound COC(=O)CNc1c(C(=O)NCc2ccc(F)cc2F)c(=O)n(O)c2ncccc12 , give its measured ratio of the EC50s (our compound relative to DTG) against P142H value.
### Response 4.6

### Prompt For the compound O=C(NCc1ccc(F)cc1F)c1c(O)c2cc(CCS(=O)(=O)c3ccccc3)cnc2n(O)c1=O , give its measured ratio of the EC50s (our compound relative to DTG) against P142H value.
### Response 9.2

### Prompt For the compound O=C(NCc1ccc(F)cc1F)c1c(O)c2c(CO)ccnc2n(O)c1=O , give its measured ratio of the EC50s (our compound relative to DTG) against P142H value.
### Response 1.3
